# Target Desc: Rho-associated protein kinase 2 (Homo sapiens) (UniProt O75116)
# Sequence (O75116 whole entry, looked up): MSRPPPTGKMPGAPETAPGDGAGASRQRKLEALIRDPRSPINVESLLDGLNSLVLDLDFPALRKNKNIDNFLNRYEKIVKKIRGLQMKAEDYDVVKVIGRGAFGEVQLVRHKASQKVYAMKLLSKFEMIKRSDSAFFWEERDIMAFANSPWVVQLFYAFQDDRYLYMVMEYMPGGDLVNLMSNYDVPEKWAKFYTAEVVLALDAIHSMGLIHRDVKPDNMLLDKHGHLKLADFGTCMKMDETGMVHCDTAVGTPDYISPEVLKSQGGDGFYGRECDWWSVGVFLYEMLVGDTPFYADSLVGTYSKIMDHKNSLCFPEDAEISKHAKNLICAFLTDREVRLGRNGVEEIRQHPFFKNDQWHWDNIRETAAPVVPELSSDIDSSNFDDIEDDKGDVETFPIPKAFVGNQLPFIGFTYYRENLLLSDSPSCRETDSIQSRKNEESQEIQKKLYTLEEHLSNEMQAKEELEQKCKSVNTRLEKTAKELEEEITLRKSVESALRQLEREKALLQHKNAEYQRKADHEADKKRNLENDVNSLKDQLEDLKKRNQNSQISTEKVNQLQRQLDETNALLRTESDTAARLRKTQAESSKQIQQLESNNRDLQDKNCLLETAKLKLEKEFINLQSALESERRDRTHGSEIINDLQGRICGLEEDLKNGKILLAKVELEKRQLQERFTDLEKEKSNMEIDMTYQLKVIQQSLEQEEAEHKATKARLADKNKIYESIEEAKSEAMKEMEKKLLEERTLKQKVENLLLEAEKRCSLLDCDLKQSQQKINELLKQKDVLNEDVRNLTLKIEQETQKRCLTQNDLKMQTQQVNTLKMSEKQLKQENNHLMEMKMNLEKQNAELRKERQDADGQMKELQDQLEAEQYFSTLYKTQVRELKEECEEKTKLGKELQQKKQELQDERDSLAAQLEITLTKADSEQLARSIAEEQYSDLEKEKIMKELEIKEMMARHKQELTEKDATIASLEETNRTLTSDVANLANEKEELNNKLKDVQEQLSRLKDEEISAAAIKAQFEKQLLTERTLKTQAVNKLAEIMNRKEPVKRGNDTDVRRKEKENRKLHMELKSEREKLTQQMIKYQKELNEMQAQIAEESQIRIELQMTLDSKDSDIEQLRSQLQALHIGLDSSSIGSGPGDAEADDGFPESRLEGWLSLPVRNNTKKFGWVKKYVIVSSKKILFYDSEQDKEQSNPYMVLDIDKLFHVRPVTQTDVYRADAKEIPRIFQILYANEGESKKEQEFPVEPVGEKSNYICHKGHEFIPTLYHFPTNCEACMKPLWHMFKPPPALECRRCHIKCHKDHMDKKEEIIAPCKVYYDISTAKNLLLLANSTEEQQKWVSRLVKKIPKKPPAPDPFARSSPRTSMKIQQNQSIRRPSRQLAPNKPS
# Condition Label: at 1 µM
# Description: GSK_PKIS: ROCK2 mean inhibition at 1 uM [Nanosyn]
Property: inhibition
For clarity, give the value followed by its unit.

As a guide, the following entries are already answered.
compound=O=C(Nc1n[nH]c2nc(-c3ccc(O)cc3)c(Br)cc12)C1CC1 target_desc="Rho-associated protein kinase 2 (Homo sapiens) (UniProt O75116)" observed_value=6.43%
compound=FC(F)(F)c1cccc(Nc2nccc(-c3cnn4nc(-c5ccccc5)ccc34)n2)c1 target_desc="Rho-associated protein kinase 2 (Homo sapiens) (UniProt O75116)" observed_value=0.98%
compound=NC(=O)c1ccc(Oc2nccc(-c3c(-c4ccc(F)cc4)ncn3C3CCNCC3)n2)cc1 target_desc="Rho-associated protein kinase 2 (Homo sapiens) (UniProt O75116)" observed_value=4.42%
compound=c1ccc(Oc2ccc(Nc3ncc(-c4ccccc4)o3)cc2)cc1 target_desc="Rho-associated protein kinase 2 (Homo sapiens) (UniProt O75116)" observed_value=4.11%
compound=Fc1ccc(-c2ncn(CCCN3CCOCC3)c2-c2ccncc2)cc1 target_desc="Rho-associated protein kinase 2 (Homo sapiens) (UniProt O75116)" observed_value=-4.4%
compound=COc1ccc2ncn(-c3cc(O[C@H](C)c4ccccc4Cl)c(C(N)=O)s3)c2c1 target_desc="Rho-associated protein kinase 2 (Homo sapiens) (UniProt O75116)" observed_value=2.59%
compound=C[C@@H](Oc1cc(-n2cnc3ccc(OC4CCN(C)CC4)cc32)sc1C(N)=O)c1ccccc1Cl target_desc="Rho-associated protein kinase 2 (Homo sapiens) (UniProt O75116)" observed_value=5.08%
compound=COc1cc(Nc2ncc3c(C)nc(-c4cccc(Oc5ccccc5)c4)n3n2)cc(OC)c1OC target_desc="Rho-associated protein kinase 2 (Homo sapiens) (UniProt O75116)" observed_value=-0.91%
compound=C/C(Nc1ccc(S(N)(=O)=O)cc1)=C1/C(=O)Nc2ccccc21 target_desc="Rho-associated protein kinase 2 (Homo sapiens) (UniProt O75116)" observed_value=9.54%
compound=COc1cc(Nc2ncc(-c3ccccc3)o2)cc(OC)c1OC target_desc="Rho-associated protein kinase 2 (Homo sapiens) (UniProt O75116)" observed_value=3.74%

// for each compound in input: emit inhibition
1. NC(=O)Cc1ccccc1Oc1nccc(-c2c(-c3ccc(F)cc3)ncn2C2CCNCC2)n1
2. CN(C)c1ccc2c(c1)/C(=C/Nc1ccc(S(N)(=O)=O)cc1)C(=O)N2
3. O=C(Nc1n[nH]c2cc(-c3ccccc3)ccc12)C1CC1
4. COC(=O)Nc1nc2ccc(Sc3ccc(NC(=O)Nc4cc(C(F)(F)F)ccc4F)cc3)cc2[nH]1
5. CCN(CC)Cc1ccc(Nc2nccc(-c3cnn4ncccc34)n2)cc1
6. O=C1NC(=O)C(c2cccc(Cl)c2)=C1Nc1ccc(Cl)c(C(=O)O)c1

Out:
1: 0.19%; 2: 13.3%; 3: 0.78%; 4: -0.19%; 5: 13.7%; 6: 4.98%

# per-item lookup of inhibition; items listed below
1. C#Cc1cccc(Nc2ncnc3ccc(OCCCCNCCS(C)(=O)=O)cc23)c1
2. O=C(Nc1ccc(Oc2ccc3[nH]c(NC(=O)c4ccccc4)nc3c2)cc1)Nc1cc(C(F)(F)F)ccc1F
3. c1ccc(-c2n[nH]cc2-c2ccnc(-c3ccc(OCCN4CCOCC4)cc3)c2)nc1

Out:
6.92%
8.83%
-1.4%

Hi there! I need inhibition for each item below, if you can.
1. CCS(=O)(=O)c1ccc(OC)c(Nc2ncc(-c3ccccc3Cl)o2)c1
2. Nc1nccc(-c2c(-c3ccc(F)cc3)ncn2C2CCC(O)CC2)n1 (stereo not given)
3. Fc1ccc(-c2nc3n(c2-c2ccncc2)CCS3)cc1
4. Fc1ccc(-c2ncn(C3CCNCC3)c2-c2ccnc(Oc3ccc(Oc4ccccc4)cc3)n2)cc1
5. CCS(=O)(=O)c1ccc(OC)c(Nc2ncc(-c3cccc(-c4ccccc4F)c3)o2)c1

Out:
1: 2.53%; 2: -1.96%; 3: 5.06%; 4: 3.69%; 5: 1%

Please look at the items below and tell me inhibition for each one, in order.
1. COc1cc(N2CCN(C(C)C)CC2)ccc1Nc1nc(Nc2ccc(F)cc2C(=O)NC[C@@H](O)CO)c2cc[nH]c2n1
2. COc1cc2ncn(-c3cc(OCc4ccccc4C(F)(F)F)c(C(C)=O)s3)c2cc1OC
3. CCc1nccc2c1nc(-c1nonc1N)n2CC
4. CCc1ccc(Oc2nccc(-c3c(-c4ccc(F)cc4)ncn3C3CCNCC3)n2)cc1
5. CS(=O)(=O)CCNCc1ccc(-c2ccc3ncnc(Nc4ccc(OCc5ccccc5)c(Br)c4)c3c2)o1
6. NS(=O)(=O)c1ccc(N/N=C2\C(=O)Nc3ccc(C(=O)NCCCn4ccnc4)cc32)cc1
7. CN(C)CCOc1ccc(-c2cc(-c3ccc4c(c3)CCC4=NO)c(-c3ccncc3)o2)cc1

Out:
1. 8.05%
2. 2.95%
3. 17%
4. 3.7%
5. 1.26%
6. 25.4%
7. -0.39%
